# z-score annotations
experiment: E. coli acrAB mutant growth effects, primary screen, E. coli filamentation inducers, strain DRC39, OD650, 24 h (AID 1178); conditions: higher = more signal, called active from +8 up or from −8 down;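 also: growth measured as culture turbidity by optical density at 650 nm; test concentration not given here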
// return just the number, without any unit appended

1. CC(C)c1ccc(NN2C(C(O)c3c(F)cccc3Cl)C=CC3C(=O)N(c4ccccc4)C(=O)C32)cc1 (centres undefined); -0.576

Tell me measured z-score for CCCCC(CC)C(O)C1C=CC2C(=O)N(c3ccccc3)C(=O)C2N1Nc1ccccc1 (centres undefined) please.
-0.556

Please supply the value of reported z-score for the item CN1C(=O)C2C=CC(C(O)c3ccccn3)N(Nc3ccccc3)C2C1=O (centres undefined)
-0.206

Determine its reported z-score: CCOC(=O)C1=CCC(C(C)(C)C)N(S(=O)(=O)c2ccc(C)cc2)C1 (centres undefined)
-0.021

Please report z-score for the following compound: C=CC[C@]1(C(=O)N2CCOCC2)N=C(c2ccc(OCCCO)cc2)O[C@H]1c1ccccc1
0.14

Given the compound O=C1C2C=CC(C(O)c3ccc(-c4ccccc4)s3)N(n3cnnc3)C2C(=O)N1Cc1ccccc1 (centres undefined) , write its reported z-score.
-0.27

Please give the documented z-score of C=C[C@@H](COC(C)=O)N(Cc1ccc([N+](=O)[O-])cc1)S(=O)(=O)c1ccc(Br)cc1
1.01

---

tested on: Plasmodium falciparum Sir2 (PF13_0152, Sir2A); experiment: pfSir2 binders on small-molecule microarrays, primary screen, biochemical, small-molecule microarray, 635 nm fluorescence (AID 1098); conditions: small-molecule microarray binding, fluorescence 635 nm; higher = more signal;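 also: score merges spot fluorescence intensity with its signal-to-noise ratio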
Given measured composite z-score, output met if it is greater than or equal to 0.7 and not met if not.

1) COC(=O)[C@@]1(Cc2ccc(F)cc2)[C@H]2c3cc(C(=O)N4CCCC4)n(Cc4cccc5ccccc45)c3C[C@H]2CN1C(=O)c1ccccc1; met
2) O=C1O[C@H](c2ccccc2)[C@H](c2ccccc2)N2[C@H]1[C@@H](C(=O)N1CCN(c3ncccn3)CC1)[C@]1(C(=O)Nc3ccccc31)[C@H]2c1ccc(OCCO)cc1; not met
3) [N-]=[N+]=Nc1ccccc1[C@@H]1OC(c2ccc(OCCCO)cc2)=N[C@]1(CCS(=O)(=O)c1ccccc1)C(=O)N1CCOCC1; met
4) CCOC(=O)C[C@H]1[C@H](OC(=O)Cc2ccc3c(c2)OCO3)[C@@H](NC(=O)C2CCCCC2)c2cc(OCCCO)ccc2N1C(=O)Cc1ccc(OC)cc1; not met
5) CC(C)N1C(=O)c2ccccc2[C@@H](C(=O)NCCCN(C)C)[C@@H]1c1ccc(CO)cc1; met
6) CN(C)CCCCNC(=O)[C@H]1C[C@H]2C(=O)N[C@@H](Cc3ccccc3)C(=O)N2[C@H]1c1ccc(O)cc1; met

API: above_or_equal(metric=composite z-score, cutoff=0.7) for item CC(C)NC(=O)[C@@]1(Cc2ccccc2I)c2ccccc2C(=O)N(Cc2ccccc2)[C@H]1c1ccc(CO)cc1
met

Test whether the molecule O=C1OCCC=C[C@H]2OC34C=CCN(c5ccc6ccccc6c5)C(=O)[C@H]3N(CCCCCO)C(=O)[C@@H]4C12 (stereo not given in full) records composite z-score of 0.7 or higher.
met

Decide: composite z-score of O=C(O)[C@H]1C[C@H]2C(=O)NCC(=O)N2[C@H]1c1ccc(O)cc1 >= 0.7?
not met

For this molecule, is measured composite z-score 0.7 or higher? COc1ccc(C#Cc2ccc3c(c2)[C@]2(C(=O)N3)[C@H](C(=O)NC[C@H](O)c3ccccc3)[C@H]3C(=O)O[C@H](c4ccccc4)[C@H](c4ccccc4)N3[C@@H]2c2ccccc2OCCO)cc1
met
